# method description: qHTS of pediatric cancer cell lines to identify multiple opportunities for drug repurposing: Confirmatory screen for LAN-5 cells (AID 1347113); further: nearly all actives have a fitted effect of over 65% in size
# applied conditions: LAN-5 neuroblastoma cell viability; series mostly up to 45.9 µM
Results filed as inconclusive are left out. Calls of active or inactive are those of the source. The call rests on the fitted dose curve; in most records, active means well fitted cell-killing curve with a large enough effect; inconclusive means small, poorly fitted or top-dose-only effect, or effect the other way; inactive means no such curve, though single readings can be large or run the other way.
Respond only with the outcome that fits, drawn from active, inactive

# count of solved cases: 6
N[C@@H](Cc1ccc(N(CCCl)CCCl)cc1)C(=O)O | active
COC[C@@H](NC(C)=O)C(=O)NCc1ccccc1 | inactive
C[C@@H]1[C@@H](CC(C[C@H]2O[C@@H]3O[C@]4(C)CC[C@@H]5[C@H](C)CC[C@@H]([C@H]2C)[C@@]35OO4)C[S+](=O)([O-])c2ccc(COC(=O)N(C)C)cc2)O[C@@H]2O[C@]3(C)CC[C@H]4[C@H](C)CC[C@@H]1[C@@]24OO3 (stereo partly drawn) | active
Cn1c(CCCC(=O)O)nc2cc(N(CCCl)CCCl)ccc21 | inactive
O=c1[nH]c2ccccc2n1CCCN1CCC(n2c(=O)[nH]c3cc(Cl)ccc32)CC1 | active
C[C@H]1O[C@@H](O[C@H]2[C@@H](O)C[C@H](O[C@H]3[C@@H](O)C[C@H](O[C@H]4CC[C@@]5(C)[C@H](CC[C@@H]6[C@@H]5CC[C@]5(C)[C@@H](C7=CC(=O)OC7)CC[C@]65O)C4)O[C@@H]3C)O[C@@H]2C)C[C@H](O)[C@@H]1O | active

Ask: Hi, do you know how O=P1(NCCCl)OCCCN1CCCl (stereo not drawn) came out in this test?
Result: inactive

Ask: Hi, do you know how C=C(C)[C@H]1Cc2c(ccc3c2O[C@@H]2COc4cc(OC)c(OC)cc4[C@@H]2C3=O)O1 came out in this test?
Result: active

----------
# method description: Quantitative High-Throughput drug screen in 47 multiple myeloma cell lines against the NCATS MIPE library collection: MOLP8_DSMZ cell viability assay (AID 1918977);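 further: 100% = DMSO-only wells and 0% = media-only wells without cells; nearly all actives have a fitted effect of over 45% in size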
# applied conditions: MOLP8 myeloma viability, CellTiter-Glo ATP luminescence, 48 h; series mostly up to 45.8 µM
Records with an inconclusive call do not appear. The source made the active and inactive calls. Calls come from the whole dose curve; as a rule, active = well fitted cell-killing curve with a large enough effect; inconclusive = small, poorly fitted or top-dose-only effect, or effect the other way; inactive = no such curve, though single readings can be large or run the other way.
Respond only with the outcome that fits, drawn from true (1) (active), false (0) (inactive)

# count of solved cases: 3
CC(C)CC(N(C)C)C1(c2ccc(Cl)cc2)CCC1 (configuration not stated) | false (0)
COC[C@@H](NC(C)=O)C(=O)NCc1ccccc1 | false (0)
CN(C)CCc1ccc(O)cc1 | false (0)

Could you now consider this next compound?
Ask: Hi, do you know how CN(C)[C@@H]1C(=O)C(C(N)=O)=C(O)[C@@]2(O)C(=O)C3=C(O)c4c(O)cccc4[C@@](C)(O)[C@H]3C[C@@H]12 came out in this test?
Result: false (0)

----------
# method description: High-throughput drug toxicity screening in the BPDCN cell line Gen2.2 (AID 1224824);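 further: cells exposed to compounds for 48 h before reading; 100% = DMSO and 0% = bortezomib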
# applied conditions: Gen2.2 BPDCN cells; at 45.8 µM (top of the series)
observable: cell viability, % of control (lower = more cytotoxic) (%)
Response body: numeric value in %, unit text excluded.

Example entries begin here.
C=C(C)[C@H]1Cc2c(ccc3c2O[C@@H]2COc4cc(OC)c(OC)cc4[C@@H]2C3=O)O1 | 45.8
CN1CCN(C(=O)O[C@H]2c3nccnc3C(=O)N2c2ccc(Cl)cn2)CC1 | 126
CCCC(C)(COC(N)=O)COC(=O)NC(C)C (stereo unspecified) | 386
CN(C)[C@@H]1C(=O)C(C(N)=O)=C(O)[C@@]2(O)C(=O)C3=C(O)c4c(O)cccc4[C@@](C)(O)[C@H]3C[C@@H]12 | 333

Ask: Given NCC1(CC(=O)O)CCCCC1 , state its recorded cell viability, % of control (lower = more cytotoxic).
Result: 114
